assay: chemical genetic growth profiling, strain panel (AID 1159580);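 note: tested at 20 µM; growth read once vehicle control cultures reached saturation at 30 °C; lower values mean less growth of the strain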; settings: S. cerevisiae deletion strains, growth OD, locus YOR001W, strain rrp6
The whole screen tested about 5,500 compounds, of which about 2,000 (36%) were called active. Inconclusive results (about 18%) are left out. Cut-off read from the data, not from the text of the source: active = normalized growth mostly below about 0.91 (no sharp cut-off); inconclusive = no clear call, values can overlap the other calls; inactive = mostly above about 0.92. The list shows a part of the results.
The reply should name one outcome from active, inactive

Could you kindly confirm the outcome this assay logged for Oc1ccc2c(c1)O[C@H](c1ccc(O)c(O)c1)[C@@H](O)C2 ?
inactive

Could you kindly confirm the outcome this assay logged for O=C(O[C@@H]1Cc2c(O)cc(O)cc2O[C@@H]1c1ccc(O)c(O)c1)c1cc(O)c(O)c(O)c1 ?
inactive

Could you kindly confirm the outcome this assay logged for O=C1C(Cl)=C(Cl)C(=O)C(Cl)=C1Cl ?
inactive

Could you kindly confirm the outcome this assay logged for COc1ccc(-c2coc3cc(O)ccc3c2=O)c(OC)c1 ?
inactive

Could you kindly confirm the outcome this assay logged for NCCS(=O)(=O)O ?
inactive

Could you kindly confirm the outcome this assay logged for COC(=O)/C=C/C(C)=C/C=C/C(C)=C/C=C/C=C(C)/C=C/C=C(C)/C=C/C(=O)O ?
inactive

Could you kindly confirm the outcome this assay logged for O=C(c1ccc(OCCN2CCCCC2)cc1)c1c(-c2ccc(O)cc2)sc2cc(O)ccc12 ?
inactive

Could you kindly confirm the outcome this assay logged for COc1ccc([C@H]2Oc3c(I)c(OC)cc(OC)c3C[C@@H]2O)cc1OC ?
inactive

Could you kindly confirm the outcome this assay logged for COc1ccc(C(=O)CC(=O)O)c2c1C=CC(C)(C)O2 ?
inactive

Could you kindly confirm the outcome this assay logged for O=C1CCC(N2C(=O)c3ccccc3C2=O)C(=O)N1 (configuration not stated) ?
inactive

Could you kindly confirm the outcome this assay logged for NCCCS(=O)(=O)O ?
inactive

Could you kindly confirm the outcome this assay logged for O=C(O)c1cc2cc(F)ccc2[nH]1 ?
inactive

Could you kindly confirm the outcome this assay logged for Nc1nc(=S)c2[nH]cnc2[nH]1 ?
inactive

Could you kindly confirm the outcome this assay logged for O=c1c(-c2ccc(O)cc2)coc2cc(O)ccc12 ?
inactive
